- tested_system: Human GLP-1 receptor (human, UniProt P43220)
- protocol_notes: cell-based or functional assay
Starred links: 1 amine or outer side, 2 acyl side, 3 side chain; linkers in the order of their positions; H or OH if unused. Non-standard residues stand in square brackets, D forms with d. Groups on a side chain read outwards from the residue. γGlu = O=C(O)[C@H](CCC(=O)[*:2])N[*:1]; C(:O)(CH2)nR3 = not defined here; Aib = CC(C)(N)C(=O)O

binder: Peptide No. 10 (reading uncertain; also: K* acyl n and R3 not given here, acetate salt, printed as Y-Aib-E-G-T-F-T-S-D-Y-S-I-Aib-L-D-K-I-A-Q-K*-AFVQWLLAGGPSCNTATCATQRLANFLVHSSNNFGPILPPTNVGSNTY-NH2) peptide: Y[Aib]EGTFTSDYSI[Aib]LDKIAQK([γGlu-γGlu-C(:O)(CH2)nR3])AFVQWLLAGGPSCNTATCATQRLANFLVHSSNNFGPILPPTNVGSNTY-NH2
EC50 (nM), cAMP cell-based agonist assay: 3.87 nM
--
binder: Peptide No. 22 (reading uncertain; also: K* n and R3 not given here, acetate salt) peptide: [dY]AEGTFTSDYSIQLDKIAQQAFVQWLLAGSGCNTATCATQRLANFLVHSSNNFGPILPPTNVGK([γGlu-γGlu-C(:O)(CH2)nR3])NTY-NH2
EC50 (nM), cAMP cell-based agonist assay: 42 nM
--
binder: Peptide No. 17 (reading uncertain; also: K* n and R3 not given here, acetate salt) peptide: [dY]AEGTFTSDYSIALDKIAQQAFVQWLLAGGPSCNTATCVLGRLSQELHRLQTYPRTNTGK([γGlu-γGlu-C(:O)(CH2)nR3])NTY-NH2
EC50 (nM), cAMP cell-based agonist assay: 5.7 nM
--
binder: Peptide No. 19 (reading uncertain; also: K* n and R3 not given here, acetate salt) peptide: [dY]AEGTFTSDYSIQLDKIAQQAFVQWLLAGGPSCNTATCVLGRLSQELHRLQTYPRTNTGK([γGlu-γGlu-C(:O)(CH2)nR3])NTY-NH2
EC50 (nM), cAMP cell-based agonist assay: 8.23 nM
--
binder: Peptide No. 15 (reading uncertain; also: K* n and R3 not given here, acetate salt) peptide: Y[dA]EGTFTSDYSIALDKIAQQAFVQWLLAGGPSCNTATCVLGRLSQELHRLQTYPRTNTGK([γGlu-γGlu-C(:O)(CH2)nR3])NTY-NH2
EC50 (nM), cAMP cell-based agonist assay: 5.2 nM
--
binder: Peptide No. 21 (reading uncertain; also: K* n and R3 not given here, acetate salt) peptide: [dY]AEGTFTSDYSIQLDKIAQQAFVQWLLAGSGCNTATCVLGRLSQELHRLQTYPRTNTGK([γGlu-γGlu-C(:O)(CH2)nR3])NTY-NH2
EC50 (nM), cAMP cell-based agonist assay: 43 nM
